Where these numbers come from: paper PMC10041525

Provide the reported MIC50 of each item.
system: 100 A. baumannii strains (50 MDR, 50 non-MDR); assay: MIC broth microdilution at IHMA Europe, panel of 100 strains; assay type: cell-based; settings: Acinetobacter baumannii, non-MDR n = 50; read-out: MIC 50
Express your answer in µg/mL, writing the number without its unit.

Prompt: Which measured MIC50 value corresponds to CO/N=C(\C(=O)N[C@@H]1C(=O)N2C(C(=O)[O-])=C(C[N+]3(C)CCCC3)CS[C@H]12)c1csc(N)n1 [Cefepime, cefepime] ?
Response: 1

Prompt: Which measured MIC50 value corresponds to Cc1[nH]c(C(=O)Nc2nc3c(N4[C@@H]5CC[C@H]4COC5)cc(C(=O)O)cc3s2)c(Cl)c1Cl [7h] ?
Response: 2

Prompt: Which measured MIC50 value corresponds to CN(C)c1cc(NC(=O)CNC(C)(C)C)c(O)c2c1C[C@H]1C[C@H]3[C@H](N(C)C)C(O)=C(C(N)=O)C(=O)[C@@]3(O)C(O)=C1C2=O [Tigecycline, tigecycline] ?
Response: 0.25

Prompt: Which measured MIC50 value corresponds to C[C@@H](O)[C@H]1C(=O)N2C(C(=O)O)=C(S[C@@H]3CN[C@H](C(=O)N(C)C)C3)[C@H](C)[C@H]12 [Meropenem, meropenem] ?
Response: 0.25
